Test system: Salmonella typhimurium
assay remarks: Mutagenicity in Salmonella typhimurium TA98 at 2.5 mg/ml after 48 hrs by AMES MPF assay in absence of Sprague-Dawley rat liver microsomal S9 fraction relative to baseline
Assay type: toxicity, organism-based
condition set: salmonella enterica subsp. enterica serovar typhimurium
readout: fold change (FC)
Give bare numbers.

Below are 6 compounds. Give each one its fold change (FC).
1. Fc1ccc(C2CC(c3ccc(Cl)s3)=NN2c2nc(-c3ccccc3)cs2)cc1 (stereo unspecified)
2. Cc1ccc(C2=NN(c3nc(-c4ccc(S(C)(=O)=O)cc4)cs3)C(c3ccc(F)cc3)C2)s1 (stereo unspecified)
3. Fc1ccc(C2CC(c3ccc(Cl)s3)=NN2c2nc(-c3ccc(Br)cc3)cs2)cc1 (stereo unspecified)
4. Cc1ccc(C2=NN(c3nc(-c4ccc(C#N)cc4)cs3)C(c3ccc(F)cc3)C2)s1 (stereo unspecified)
5. Fc1ccc(C2CC(c3ccc(Cl)s3)=NN2c2nc(-c3ccc(C(F)(F)F)cc3)cs2)cc1 (stereo unspecified)
6. Fc1ccc(C2CC(c3ccc(Cl)s3)=NN2c2nc(-c3ccc(Cl)cc3)cs2)cc1 (stereo unspecified)

Data returned:
1: 0; 2: 0.67; 3: 0; 4: 1.56; 5: 0; 6: 0.67
